- Test system: sensitized Brown Norway rats
- assay-overview: Ovalbumin-induced accumulation of inflammatory cells in lung lavage fluid (allergen-induced lung inflammation)
- Assay type: in vivo, rat
- condition-description: 5 mg/kg/day for 4 days, p.o., corn oil; lung lavage fluid; relative to control animals
Classification field: enter label 1 for % inhibition of eosinophils values not below 50%, label 0 for values below it.

| molecule | cat |
| --- | --- |
| CC(F)=C1CCC2C3C(CC[C@]12C)[C@@]1(C)CCC(N)CC1[C@@H](O)[C@@H]3O (stereo partly drawn) [Compound 95] | label 0 |
| C/C=C1/CCC2C3C(CC[C@]12C)[C@@]1(C)CC[C@H](N)CC1[C@@H](O)[C@@H]3O (stereo partly drawn) [Compound 83] | label 1 |
| CCC1CCC2C3C(CC[C@]12C)[C@@]1(C)CCC(N)CC1[C@@H](O)[C@@H]3O (stereo partly drawn) [Compound 97] | label 0 |
| C=C1CCC2C3C(CC[C@]12C)[C@@]1(C)CC[C@H](N)CC1[C@@H](O)[C@@H]3O (stereo partly drawn) | label 1 |
| CCC1CCC2C3C(CC[C@]12C)[C@@]1(C)CCC(N)CC1[C@@H](O)[C@@H]3O (stereo partly drawn) [Compound 96] | label 0 |
| CC=C1CCC2C3C(CC[C@]12C)[C@@]1(C)CCC(N)CC1[C@@H](O)[C@@H]3O (stereo partly drawn) | label 1 |
| C/C=C1/CCC2C3C(CC[C@]12C)[C@@]1(C)CC[C@H](N)CC1[C@@H](O)[C@@H]3O (stereo partly drawn) [Compound 28] | label 1 |
| C=C1CCC2C3C(CC[C@]12C)[C@@]1(C)CCC(N)CC1[C@@H](O)[C@@H]3O (stereo partly drawn) | label 0 |
| CC(F)=C1CCC2C3C(CC[C@]12C)[C@@]1(C)CCC(N)CC1[C@@H](O)[C@@H]3O (stereo partly drawn) [Compound 64] | label 1 |

----------
- System: Rat Mast Cell Line (RBL-2H3)
- assay-overview: Antigen-induced release of hexosaminidase from a rat mast cell line (RBL-2H3)
- Format: cell-based
- condition-description: inhibition of antigen (DNP-HSA)-induced hexosaminidase release, tested at 0.3, 3, 10 and 30 μM, read-out: Hex IC50
pIC50: −log10 of the molar value.
recorded-metric: pIC50

| compound | recorded-metric | reported |
| --- | --- | --- |
| CC=C1CCC2C3C(O)C(O)C4CC(NCCNCCC)CCC4(C)C3CCC12C (stereo not shown) [Compound 119] | pIC50 | 5.21 |
